# measured-target: human recombinant HDAC1 (Homo sapiens)
# Sequence (Q13547 whole entry): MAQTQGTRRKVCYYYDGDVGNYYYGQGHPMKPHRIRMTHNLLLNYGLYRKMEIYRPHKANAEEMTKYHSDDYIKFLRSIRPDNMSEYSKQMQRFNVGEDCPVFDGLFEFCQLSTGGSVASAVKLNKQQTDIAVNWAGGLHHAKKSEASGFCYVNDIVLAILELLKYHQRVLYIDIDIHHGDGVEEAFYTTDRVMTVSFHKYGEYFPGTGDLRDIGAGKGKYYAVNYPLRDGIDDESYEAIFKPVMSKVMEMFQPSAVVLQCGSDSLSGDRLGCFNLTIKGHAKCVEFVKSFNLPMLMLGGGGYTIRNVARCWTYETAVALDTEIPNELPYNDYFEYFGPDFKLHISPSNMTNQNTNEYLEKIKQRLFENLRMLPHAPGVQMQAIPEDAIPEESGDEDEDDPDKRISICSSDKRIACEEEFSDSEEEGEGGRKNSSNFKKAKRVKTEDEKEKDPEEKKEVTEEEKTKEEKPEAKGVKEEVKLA
# experimental-protocol: HDAC1 enzyme activity inhibition assay (HDAC Fluorimetric Drug Discovery Kit)
# cond: 0.3 μg enzyme, 10 μM substrate, 30° C., 60 minutes
pIC50: −log10 of the molar value.
measurement-kind: pIC50

compound="O=S(=O)(CCCN1CCOCC1)N(Cc1ccc(-c2nnc(C(F)F)o2)cn1)c1ccc(F)c(Cl)c1 [Compound 11711]" measurement_kind=pIC50 value_measured=4.21
compound="CS(=O)(=O)N(Cc1ccc(-c2nnc(C(F)(F)F)o2)cc1F)c1ccc2c(c1)OCO2 [Compound 11226]" measurement_kind=pIC50 value_measured=4.94
compound="CS(=O)(=O)N(Cc1ncc(-c2nnc(C(F)(F)F)o2)cn1)c1ccccc1 [Compound 11565]" measurement_kind=pIC50 value_measured=4.33

(a) CCS(=O)(=O)N(Cc1ccc(-c2nnc(C(F)(F)F)o2)cn1)c1ccc(F)c(Cl)c1 [Compound 11429]
(b) CCS(=O)(=O)N(Cc1ccc(-c2nnc(C(F)F)o2)cc1F)c1ccc2cnn(C)c2c1 [Compound 11521]
(c) CS(=O)(=O)N(Cc1cnc(-c2nnc(C(F)(F)F)o2)cn1)c1ccccc1 [Compound 11573]
(d) Cc1cccc(N(Cc2ccc(-c3nnc(C(F)F)o3)cn2)S(=O)(=O)C2CCN(C3CCC(F)(F)CC3)CC2)c1 [Compound 11687]
stdin: Endpoint returns the given compounds ordered by ascending pIC50. Please write the labels in the order that was asked for.
stdout: d, b, a, c
(d: 4.10, b: 4.36, a: 4.73, c: 5.59)

###

# measured-target: human recombinant HDAC6 (Homo sapiens)
# experimental-protocol: HDAC6 enzyme activity inhibition assay (HDAC Fluorimetric Drug Discovery Kit)
# cond: same protocol as the HDAC1 enzyme activity test
measurement-kind: IC50 (nM)

compound="CCS(=O)(=O)N(Cc1ccc(-c2nnc(C(F)F)o2)cc1F)c1cccc2c1cnn2C [Compound 11520]" measurement_kind=IC50 value_measured=32
compound="CCS(=O)(=O)N(Cc1ccc(-c2nnc(C(F)F)o2)cn1)c1cccc2c1cnn2C [Compound 11539]" measurement_kind=IC50 value_measured=23
compound="O=S(=O)(C1CCN([C@H]2CC[C@H](F)CC2)CC1)N(Cc1ccc(-c2nnc(C(F)F)o2)cn1)c1cccc(Cl)c1 [Compound 11727]" measurement_kind=IC50 value_measured=56.3
compound="CCS(=O)(=O)N(Cc1ccc(-c2nnc(C(F)(F)F)o2)cn1)c1ccc(F)c(Cl)c1 [Compound 11429]" measurement_kind=IC50 value_measured=65

(a) CS(=O)(=O)N(Cc1ccccn1)Cc1ccc(-c2nnc(C(F)(F)F)o2)cn1 [Compound 11128]
(b) CS(=O)(=O)N(Cc1ccc(-c2nnc(C(F)F)o2)cn1)c1ccccc1 [Compound 11172]
(c) CC(C)(O)CN1CCC(S(=O)(=O)N(Cc2ccc(-c3nnc(C(F)F)o3)cc2F)c2ccccc2)CC1 [Compound 11377]
(d) O=S(=O)(CCN1Cc2cccc3cccc(c23)C1)N(Cc1ccc(-c2nnc(C(F)F)o2)cc1)c1ccccc1 [Compound 11843]
stdin: Hey, quick one: sort these by IC50, low to high? # respond with the labels, arranged in the requested order
stdout: b, c, a, d
(b: 9 nM, c: 22 nM, a: 520 nM, d: 994 nM)

###

# measured-target: human recombinant HDAC6 (Homo sapiens, UniProt Q9UBN7)
# Construct: purchased Calbiochem 382180
# experimental-protocol: HDAC6 enzyme activity inhibition assay (HDAC Fluorimetric Drug Discovery Kit)
# Type: biochemical
# cond: HDAC1 vs HDAC6
measurement-kind: HDAC6 selectivity (fold)

Check out these entries, answers already filled in.
smiles_input=CN1CCN(CCS(=O)(=O)N(Cc2ccc(-c3nnc(C(F)F)o3)cc2)c2ccccc2)CC1 measurement_kind="HDAC6 selectivity (fold)" unit_of_measure=fold value_measured=3225
smiles_input=O=S(=O)(CCN1CC[C@@H](F)C1)N(Cc1ccc(-c2nnc(C(F)F)o2)cc1)c1ccccc1 measurement_kind="HDAC6 selectivity (fold)" unit_of_measure=fold value_measured=953
smiles_input=O=S(=O)(C1CC1)N(Cc1ccc(-c2nnc(C(F)F)o2)cc1F)c1ccccc1 measurement_kind="HDAC6 selectivity (fold)" unit_of_measure=fold value_measured=3226

(a) CC(=O)N1CCN(CCCS(=O)(=O)N(Cc2ccc(-c3nnc(C(F)F)o3)cc2)c2ccccc2)CC1
(b) O=S(=O)(c1cccnc1)N(Cc1ccc(-c2nnc(C(F)F)o2)cc1F)c1ccccc1
stdin: Rank a against b by their HDAC6 selectivity (fold) values and give the higher one. Returns: label corresponding to the selected item.
stdout: b
(b: 2564 fold, a: 1587 fold)

(P) O=S1(=O)CCC(S(=O)(=O)N(Cc2ccc(-c3nnc(C(F)F)o3)cn2)c2ccccc2)CC1
(Q) Cc1nccn1CCS(=O)(=O)N(Cc1ccc(-c2nnc(C(F)F)o2)cc1)c1ccccc1
stdin: Which has the smaller recorded HDAC6 selectivity (fold), P or Q ? Pick one and reply with its label.
stdout: Q
(Q: 4000 fold, P: 10000 fold)

###

# measured-target: human recombinant HDAC6 (Homo sapiens)
# experimental-protocol: HDAC6 enzyme activity inhibition assay (HDAC Fluorimetric Drug Discovery Kit)
# cond: same protocol as the HDAC1 enzyme activity test
pIC50: −log10 of the molar value.
measurement-kind: pIC50

smiles_input=CS(=O)(=O)N(Cc1ccc(-c2nnc(C(F)F)o2)cc1F)c1ccc2c(c1)OCO2 value_measured=7.64
smiles_input=O=S(=O)(CCN1CCN(C/C=C/c2ccccc2)CC1)N(Cc1ccc(-c2nnc(C(F)F)o2)cc1)c1ccccc1 value_measured=6.57
smiles_input=CCN(CC)CCS(=O)(=O)N(Cc1ccc(-c2nnc(C(F)F)o2)cc1)c1ccccc1 value_measured=6.73

(A) CCS(=O)(=O)N(Cc1ccc(-c2nnc(C(F)F)o2)cc1F)c1cccc(C2CCN(C)CC2)c1
(B) O=S(=O)(C1CCN(C2COC2)CC1)N(Cc1ccc(-c2nnc(C(F)F)o2)cn1)c1ccc(F)c(Cl)c1
stdin: Lab note: check whether A or B has the lower measured pIC50. Bench note: the answer is the label of the chosen record.
stdout: A

###

# measured-target: human recombinant HDAC6 (Homo sapiens, UniProt Q9UBN7)
# Sequence (Q9UBN7 1-1215): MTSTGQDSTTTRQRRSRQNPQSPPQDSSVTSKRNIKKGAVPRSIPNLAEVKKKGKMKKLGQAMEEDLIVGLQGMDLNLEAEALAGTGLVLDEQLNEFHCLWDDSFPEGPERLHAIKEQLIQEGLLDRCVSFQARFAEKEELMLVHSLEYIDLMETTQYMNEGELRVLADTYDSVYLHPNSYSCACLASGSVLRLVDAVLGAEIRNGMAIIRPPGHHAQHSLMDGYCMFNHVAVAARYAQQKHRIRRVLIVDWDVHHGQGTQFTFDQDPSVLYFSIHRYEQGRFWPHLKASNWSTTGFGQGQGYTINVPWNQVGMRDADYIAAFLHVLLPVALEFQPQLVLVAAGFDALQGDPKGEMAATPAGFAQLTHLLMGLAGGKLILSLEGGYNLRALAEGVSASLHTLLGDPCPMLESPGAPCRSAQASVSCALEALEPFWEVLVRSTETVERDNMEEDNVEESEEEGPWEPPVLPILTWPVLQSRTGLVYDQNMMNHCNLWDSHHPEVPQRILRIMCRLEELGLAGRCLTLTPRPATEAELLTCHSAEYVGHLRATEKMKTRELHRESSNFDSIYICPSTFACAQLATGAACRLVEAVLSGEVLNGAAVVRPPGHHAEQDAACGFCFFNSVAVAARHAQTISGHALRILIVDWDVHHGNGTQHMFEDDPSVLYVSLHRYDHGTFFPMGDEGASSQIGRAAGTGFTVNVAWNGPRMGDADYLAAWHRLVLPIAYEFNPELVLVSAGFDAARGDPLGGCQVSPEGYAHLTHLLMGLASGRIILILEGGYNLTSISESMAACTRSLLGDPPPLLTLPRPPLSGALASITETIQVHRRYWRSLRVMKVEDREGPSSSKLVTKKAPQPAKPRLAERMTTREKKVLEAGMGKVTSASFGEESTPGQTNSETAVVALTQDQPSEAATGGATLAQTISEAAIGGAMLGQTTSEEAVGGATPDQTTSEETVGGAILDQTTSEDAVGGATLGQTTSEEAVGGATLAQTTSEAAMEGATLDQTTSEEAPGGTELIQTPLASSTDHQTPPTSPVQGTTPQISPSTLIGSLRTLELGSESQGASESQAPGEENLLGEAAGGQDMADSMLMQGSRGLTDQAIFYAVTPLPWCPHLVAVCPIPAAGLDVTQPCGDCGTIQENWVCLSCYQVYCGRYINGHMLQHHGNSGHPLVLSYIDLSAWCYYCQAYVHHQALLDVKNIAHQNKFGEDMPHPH
# experimental-protocol: HDAC6 enzyme activity inhibition assay (HDAC Fluorimetric Drug Discovery Kit)
# cond: same protocol as the HDAC1 enzyme activity test
measurement-kind: IC50 (nM)

Worked examples, 4 compounds total:
compound="CN1Cc2ccc(N(Cc3ccc(-c4nnc(C(F)F)o4)cn3)S(C)(=O)=O)cc2C1 [Compound 11733]" value_measured=490
compound="CCS(=O)(=O)N(Cc1ccc(-c2nnc(C(F)F)o2)cc1F)c1cccc(CN2CCN(S(C)(=O)=O)CC2)c1 [Compound 11404]" value_measured=105
compound="O=S1(=O)CCC(S(=O)(=O)N(Cc2ccc(-c3nnc(C(F)(F)F)o3)cc2F)c2cccc(F)c2)CC1 [Compound 11255]" value_measured=47
compound="CC(=O)N1CCCN(CCS(=O)(=O)N(Cc2ccc(-c3nnc(C(F)F)o3)cc2)c2ccccc2)CC1 [Compound 11759]" value_measured=102

(a) O=S(=O)(CCN1CCC(F)CC1)N(Cc1ccc(-c2nnc(C(F)F)o2)cn1)c1ccc(F)c(Cl)c1 [Compound 11786]
(b) CC(C)N1Cc2ccc(N(Cc3ccc(-c4nnc(C(F)F)o4)cc3)S(C)(=O)=O)cc2C1 [Compound 11730]
stdin: I'm curious whether a or b has the smaller IC50 number. Which is it? In your reply, give the label of the chosen option.
stdout: a
(a: 54.7 nM, b: 2530 nM)

(a) CN1CC(N2CCC(S(=O)(=O)N(Cc3ccc(-c4nnc(C(F)F)o4)cc3F)c3ccc(F)c(Cl)c3)CC2)C1 [Compound 11451]
(b) CCS(=O)(=O)N(Cc1ccc(-c2nnc(C(F)F)o2)cc1F)c1ccc(CN2CCN(C(C)=O)CC2)cc1 [Compound 11402]
stdin: Which is greater in IC50, the first item a or the second item b ? Write down the label attached to your selection.
stdout: b
(b: 76 nM, a: 9 nM)
